Test system: K562
assayNotes: In vitro cytotoxicity expressed as concentration that inhibits 50% of K562S (sensitive clone)cell proliferation
Format: functional, cell-based
measurementSetup: Homo sapiens
experimentalReadout: IC50 (nM)

[[record]]
querysmiles = "COc1cccc2c1C(=O)c1c(O)c3c(c(O)c1C2=O)C[C@@](O)(C(=O)CO)C[C@@H]3O[C@H]1C[C@H](N)[C@H](O)[C@H](C)O1"
testedsystem = "K562"
experimentalreadout = "IC50"
recordedresult = 50

[[record]]
querysmiles = "CO[C@H]1Nc2ccccc2C(=O)N2C=C(/C=C/C(=O)N(C)C)C[C@@H]12"
testedsystem = "K562"
experimentalreadout = "IC50"
recordedresult = 85

[[record]]
querysmiles = "CO[C@H]1Nc2cc3c(cc2C(=O)N2C=C(/C=C/C(=O)N(C)C)C[C@@H]12)OCO3"
testedsystem = "K562"
experimentalreadout = "IC50"
recordedresult = 50


---

assayNotes: In vitro cytotoxicity expressed as concentration that inhibits 50% of J82 (bladder) sensitive variant cell proliferation
Type: functional
measurementSetup: Homo sapiens
pIC50: −log10 of the molar value.
experimentalReadout: pIC50

[[record]]
molecule = "COc1cccc2c1C(=O)c1c(O)c3c(c(O)c1C2=O)C[C@@](O)(C(=O)CO)C[C@@H]3O[C@H]1C[C@H](N)[C@H](O)[C@H](C)O1 [DOXORUBICIN]"
recordedresult = 7.52


---

Recorded measurements of pIC50, one per entry
assayNotes: In vitro cytotoxicity expressed as concentration that inhibits 50% of J82 (bladder) resistant variant cell proliferation
Assay type: functional
measurementSetup: Homo sapiens
pIC50: −log10 of the molar value.
experimentalReadout: pIC50

[[record]]
querysmiles = "CO[C@H]1Nc2cc3c(cc2C(=O)N2C=C(/C=C/C(=O)N(C)C)C[C@@H]12)OCO3"
experimentalreadout = "pIC50"
valuemodifier = "="
recordedresult = 8.00

[[record]]
querysmiles = "COc1cccc2c1C(=O)c1c(O)c3c(c(O)c1C2=O)C[C@@](O)(C(=O)CO)C[C@@H]3O[C@H]1C[C@H](N)[C@H](O)[C@H](C)O1"
experimentalreadout = "pIC50"
valuemodifier = "<"
recordedresult = 5.00


---

assayNotes: In vitro cytotoxicity expressed as concentration that inhibits 50% of U373 (glioblastoma) resistant variant cell proliferation
Type: functional, cell-based, U-373MG ATCC
measurementSetup: Homo sapiens, U373 MG
Reported IC50 is given for each of the following compounds.
experimentalReadout: IC50 (nM)

[[record]]
querysmiles = "COc1cccc2c1C(=O)c1c(O)c3c(c(O)c1C2=O)C[C@@](O)(C(=O)CO)C[C@@H]3O[C@H]1C[C@H](N)[C@H](O)[C@H](C)O1"
experimentalreadout = "IC50"
unitssymbol = "nM"
recordedresult = 130

[[record]]
querysmiles = "CO[C@H]1Nc2cc3c(cc2C(=O)N2C=C(/C=C/C(=O)N(C)C)C[C@@H]12)OCO3"
experimentalreadout = "IC50"
unitssymbol = "nM"
recordedresult = 37


---

System: K562
assayNotes: In vitro cytotoxicity expressed as concentration that inhibits 50% of K562R (resistant clone) cell proliferation
Assay type: functional, cell-based
measurementSetup: Homo sapiens
experimentalReadout: IC50

[[record]]
compound = "CO[C@H]1Nc2cc3c(cc2C(=O)N2C=C(/C=C/C(=O)N(C)C)C[C@@H]12)OCO3"
recordedresult = "0.03 µM"

[[record]]
compound = "COc1cccc2c1C(=O)c1c(O)c3c(c(O)c1C2=O)C[C@@](O)(C(=O)CO)C[C@@H]3O[C@H]1C[C@H](N)[C@H](O)[C@H](C)O1 [DOXORUBICIN]"
recordedresult = "7 µM"

